Measured z-score by item
- Protocol Text: FRG1 expression reporter modulators in myotubes – cell-based, C2C12 myotubes, firefly/Renilla luciferase, luminescence, FRG1 inhibition for FSHD, primary screen (AID 1084)
- Condition Description: FRG1 promoter luciferase, higher = more signal, called active from +8 up or from −8 down
Endpoint Label: z-score

COc1ccc([Si](C)(C)[C@@H]2[C@@H](CC(=O)N3CCC[C@H]3CO)O[C@]3(C(=O)N(Cc4ccc(N5CCOC5=O)cc4)c4ccccc43)[C@H]2C)cc1 = -2.49
NC(=O)N1C(=O)C2C(C1=O)C1C=C(CCCO)C2C(C2CC2)N1Cc1sc2ccccc2c1Cl (configuration not stated) = 0.906
COc1ccc([Si](C)(C)[C@H]2[C@H](CCO)O[C@@]3(C(=O)N(Cc4cccc(N5C(=O)c6ccccc6Oc6ccccc65)c4)c4ccccc43)[C@@H]2C)cc1 = -1.19
COc1cc(C(O)C2C=CC3C(=O)N(c4ccccc4)C(=O)C3N2Nc2ccccc2F)cc(OC)c1OC (configuration not stated) = 1.26
COCCn1c(C(=O)N(C)C)cc2c1C[C@H]1CN(C(=O)c3ccccc3)[C@@](Cc3ccc(OC)cc3)(C(=O)OC)[C@@H]21 = 1.54
C=C(C)[C@@H]1CC=C(C(O)C2C=CC3C(=O)N(C)C(=O)C3N2Nc2ccc([N+](=O)[O-])cc2[N+](=O)[O-])CC1 (some centres not stated) = 0.404
COc1ccc([Si](C)(C)[C@H]2[C@H](CC(=O)N3Cc4ccccc4C[C@H]3CO)O[C@@]3(C(=O)N(c4ccccc4)c4ccccc43)[C@@H]2C)cc1 = -2.31
